Biological target: Alpha-2A adrenergic receptor (Homo sapiens, UniProt P08913); further: assay procedure not described here
Sequence (P08913 whole entry): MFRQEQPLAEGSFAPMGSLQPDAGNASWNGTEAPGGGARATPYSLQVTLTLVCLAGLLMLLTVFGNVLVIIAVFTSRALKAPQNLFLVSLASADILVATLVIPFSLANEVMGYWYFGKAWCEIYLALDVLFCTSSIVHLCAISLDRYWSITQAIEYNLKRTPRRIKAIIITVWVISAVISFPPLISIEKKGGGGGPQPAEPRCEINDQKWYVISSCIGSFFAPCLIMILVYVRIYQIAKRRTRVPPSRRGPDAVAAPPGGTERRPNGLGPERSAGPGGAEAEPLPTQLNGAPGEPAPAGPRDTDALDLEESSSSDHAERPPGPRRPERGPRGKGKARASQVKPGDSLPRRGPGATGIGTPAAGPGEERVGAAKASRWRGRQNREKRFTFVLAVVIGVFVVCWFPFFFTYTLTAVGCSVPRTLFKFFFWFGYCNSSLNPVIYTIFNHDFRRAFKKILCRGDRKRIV
Type: functional, cell-based
Assign AC50 to each entry below.

Query: Answer with the recorded AC50 for the compound listed here: `Nc1nc2ccc(OC(F)(F)F)cc2s1`
Response: > 30 µM

Query: Specify measured AC50 for `C#CCN(C)[C@H](C)Cc1ccccc1` .
Response: > 10 µM

Query: Indicate its recorded AC50; the compound in question is `OCc1cc([C@@H](O)CNCCCCCCOCCOCc2c(Cl)cccc2Cl)ccc1O`
Response: > 30 µM

Query: Give AC50 for the following compound: CC(C)NCC(O)COc1ccc(COCCOC(C)C)cc1 (stereo not given)
Response: > 10 µM

Query: Identify measured AC50 corresponding to CN1CCC2=C(C1)C(c1ccccc1)c1ccccc12 (stereo not given)
Response: > 10 µM

Query: Read off the recorded AC50 for `CCCC(CCC)C(=O)O[C@H]1C[C@H]2CC[C@@H](C1)[N+]2(C)C`
Response: > 30 µM

Query: Look up and state reported AC50 for `C[C@@H]1O[C@@H]1P(=O)(O)O`
Response: > 10 µM

Query: Consider the compound `CCC1(C2=CCCCCC2)C(=O)NC(=O)NC1=O` . State its measured AC50.
Response: > 10 µM

Query: Report AC50 for `O=C(O)Cc1cn(-c2ccccc2)nc1-c1ccc(Cl)cc1`
Response: > 30 µM

Query: Let me know recorded AC50 for `CC(C)NNC(=O)c1ccncc1` , thanks.
Response: > 30 µM

---

Target: UniProtKB P41145
Sequence (P41145 whole entry): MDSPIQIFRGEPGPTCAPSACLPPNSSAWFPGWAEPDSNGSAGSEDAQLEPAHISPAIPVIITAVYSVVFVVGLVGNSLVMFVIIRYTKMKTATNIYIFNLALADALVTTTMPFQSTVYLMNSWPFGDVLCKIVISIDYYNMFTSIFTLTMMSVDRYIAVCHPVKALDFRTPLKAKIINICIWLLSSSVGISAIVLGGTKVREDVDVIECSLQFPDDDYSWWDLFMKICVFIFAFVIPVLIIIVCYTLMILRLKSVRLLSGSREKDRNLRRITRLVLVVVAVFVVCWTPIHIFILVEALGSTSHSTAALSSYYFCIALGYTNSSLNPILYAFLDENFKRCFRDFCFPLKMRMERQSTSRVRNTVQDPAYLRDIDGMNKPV
Readout: AC50

Query: Name the recorded AC50 of the molecule listed here: CC(C)[N+](C)(CCC(C(N)=O)(c1ccccc1)c1ccccc1)C(C)C [ISOPROPAMIDE]
Response: > 10 µM

Query: Output measured AC50 for this item: `CC(C)(N)Cc1ccc(Cl)cc1`
Response: > 10 µM

Query: Note AC50 for the molecule shown: CC(C)C(=O)Nc1ccc([N+](=O)[O-])c(C(F)(F)F)c1 [FLUTAMIDE]
Response: > 10 µM

Query: Hello, please tell me recorded AC50 for this one: CN1CCCN=C1COC(=O)C(O)(c1ccccc1)C1CCCCC1 (stereo not given)
Response: > 10 µM

Query: Name the recorded AC50 of the molecule listed here: `O=C(CCCCCCC(=O)Nc1ccccc1)NO`
Response: > 30 µM

---

Assign AC50 to each entry below.
Target: Glutamate receptor ionotropic, NMDA 1 (Rattus norvegicus); further: assay procedure not described here

Query: Tell me its AC50 on Glutamate receptor ionotropic, NMDA 1 (Rattus norvegicus): CCCCCCCCOc1ccccc1C(=O)Nc1ccc(C(=O)OCC[N+](C)(CC)CC)cc1 [OTILONIUM BROMIDE]
Response: > 30 µM

Query: Find AC50 for CN(CCOc1ccc(NS(C)(=O)=O)cc1)CCc1ccc(NS(C)(=O)=O)cc1 [DOFETILIDE] on Glutamate receptor ionotropic, NMDA 1 (Rattus norvegicus) and write it down.
Response: > 10 µM

Query: Fetch value of AC50 on Glutamate receptor ionotropic, NMDA 1 (Rattus norvegicus) for `CN1CC(=O)N2[C@H](c3ccc4c(c3)OCO4)c3[nH]c4ccccc4c3C[C@@H]2C1=O` .
Response: > 10 µM

Query: Provide measured AC50 on Glutamate receptor ionotropic, NMDA 1 (Rattus norvegicus) for `CCCOc1ccc(C(=O)OCCN(CC)CC)cc1N` please.
Response: > 30 µM

Query: Fill in AC50 for `CCCC(=O)N1CCCN(c2nc(N)c3cc(OC)c(OC)cc3n2)CC1` tested with Glutamate receptor ionotropic, NMDA 1 (Rattus norvegicus).
Response: > 30 µM

Query: Lab note: Glutamate receptor ionotropic, NMDA 1 (Rattus norvegicus) assay, enter AC50 for CN1CCN(C(=O)OC2c3nccnc3C(=O)N2c2ccc(Cl)cn2)CC1 (stereo not drawn) here
Response: > 10 µM

Query: Lab note: record AC50 of `CN(C)CCCN1c2ccccc2Sc2ccccc21` tested on Glutamate receptor ionotropic, NMDA 1 (Rattus norvegicus). Further: assay procedure not described here.
Response: > 10 µM

Query: Name the recorded AC50 of O=C1CCC(N2C(=O)c3ccccc3C2=O)C(=O)N1 (stereo not drawn) [THALIDOMIDE] , assay system Glutamate receptor ionotropic, NMDA 1 (Rattus norvegicus). Further: assay procedure not described here.
Response: > 10 µM

Query: Write down the reported AC50 (system: Glutamate receptor ionotropic, NMDA 1 (Rattus norvegicus)) of `CN(C)[C@@H]1C(O)=C(C(N)=O)C(=O)[C@@]2(O)C(O)=C3C(=O)c4c(O)ccc(Cl)c4[C@@H](O)[C@H]3C[C@@H]12`; further: assay procedure not described here
Response: > 10 µM

Query: Tell me its AC50 on Glutamate receptor ionotropic, NMDA 1 (Rattus norvegicus): `C#C[C@]1(O)CC[C@H]2[C@@H]3CCc4cc(O)ccc4[C@H]3CC[C@@]21C`
Response: > 10 µM

Query: Fill in: AC50 on Glutamate receptor ionotropic, NMDA 1 (Rattus norvegicus), entry `NC(N)=Nc1nc(CSCCC(N)=NS(N)(=O)=O)cs1`
Response: > 10 µM

Query: Give AC50; test system Glutamate receptor ionotropic, NMDA 1 (Rattus norvegicus); compound `C=C1CC[C@@]2(O)[C@H]3Cc4ccc(O)c5c4[C@@]2(CCN3CC2CC2)[C@H]1O5`; further: assay procedure not described here
Response: > 30 µM

Query: Enter measured AC50, system Glutamate receptor ionotropic, NMDA 1 (Rattus norvegicus), for the compound shown: `COC(=O)[C@@H]1CC2=CC(=O)CC[C@]2(C)[C@@]23O[C@@H]2C[C@@]2(C)[C@@H](CC[C@@]24CCC(=O)O4)[C@H]13`; further: assay procedure not described here
Response: > 10 µM

Query: Please report the measured AC50 for `CC(C)(C(=O)c1cccnc1)c1cccnc1` tested on Glutamate receptor ionotropic, NMDA 1 (Rattus norvegicus). Further: assay procedure not described here.
Response: > 10 µM

Query: Enter AC50 (test system Glutamate receptor ionotropic, NMDA 1 (Rattus norvegicus)) for `CCCCOc1cc(C(=O)NCCN(CC)CC)c2ccccc2n1`; further: assay procedure not described here
Response: > 10 µM

Query: Send back Glutamate receptor ionotropic, NMDA 1 (Rattus norvegicus) AC50 of `CO/N=C(\C(=O)N[C@@H]1C(=O)N2C(C(=O)OCOC(=O)C(C)(C)C)=C(C)CS[C@H]12)c1csc(N)n1` only.
Response: > 30 µM

Query: Please indicate recorded AC50 of `CC(C)(N)Cc1ccc(Cl)cc1` measured with Glutamate receptor ionotropic, NMDA 1 (Rattus norvegicus).
Response: > 10 µM

Query: Look up and report measured AC50 (Glutamate receptor ionotropic, NMDA 1 (Rattus norvegicus)) for the following compound: `O=C(CCCCCCC(=O)Nc1ccccc1)NO`
Response: > 30 µM
